molecular target: T1, SARS-CoV-2 receptor-binding domain (WT RBD; S protein residues 319-539) (SARS-CoV-2, UniProt P0DTC2 319-539); experiment: BLI (Octet Red), IgG on protein A biosensor, WT RBD in solution, 1:1 fit
T1 construct: also called SARS-COV-2 RBD
Assay Metric: Kd (nM)
Express your answer in nM, writing the number without its unit.

Fill in: Kd of C951 (antibody, V domains shown) VH: QVQLQESGPRLVKPSGTLSLTCAVSGGSISTTNWWSWVRQPPGKGLEWIGEIHHSGNTNYNPSLKSRVTISVDRSKNQFSLKLSSVTAADTAVYFCARDGGRPGDPFDIWGQGTMVTVSS VL: QSALTQPASVSGSPGQSITISCTGTSSDVGGYNYVSWYQQHPGKAPNLMIYDVSDRPSGVSNRFSGSKSGNTASLTISGLQAEDEADYYCNSFTSNSTRVFGTGTKVTV is ___
3.03

Fill in: Kd of C952 (antibody, V domains shown) VH: EVQLVQSGAEVKKPGESLTISCKDSGNSFTIYWIGWVRQMPGKGLEWMGMIYPGDSGTRYSPSFEGQVTISADESINTAYLQWRSLKASDTAMYYCVRGIAVDWYFDLWGRGTLVTVSS VL: QSVLTQPPSVSGAPGQRVTISCTGSSSNIGAGFDVHWYQQLPGTAPKLLIYGNNNRPSGVPDRFSGSKSATSASLAITGLQAEDEADYYCQSSDSSLSGLYVFGTGTNVIV is ___
0.172

Fill in: Kd of C871 (antibody, V domains shown) VH: EVQLVESGGGLIQTGGSLKLSCAASGFIVTNNYMSWVRQAPGKGLEWVSVIYSGGTTYYADSVKGRFTISRDISKNTLYLQMNSLKAEDTAVYYCAREGDVEGISDSWSGYSRDRYYFDHWGQGTLVTVSS VL: QSALTQPASVSGSPGQSITISCTGTSSDVGGYNYVSWYQQHPGKAPKLMIYDVSNRPPTISNRFSGSKSGNTASLIISGLQPEDEADYYCSSFTSNNTRVFGTGTKVTVL is ___
3.7

Fill in: Kd of C954 (antibody, V domains shown) VH: QVQLVQSGAEVKKPGSSVKVSCKASGDTFTNYAFSWMRQAPGQGLEWMGRIIPILGIVKYSQKFQDRVRISADKSTSTAYMDLSSLRSEDTAMYYCARDSEFSTSWFSRGYHGMDVWGQGTTVTVSS VL: DIVMTQSPLSLPVTPGEPASISCRSSQSLLHGDGYNYLDWYLQKPGQSPHLLIYLGSNRTSGVSDRFSGSGSGTDFTLKISRVEAEDVGVYYCMQALQTPPTFGGGTKVEIK is ___
7.14

Fill in: Kd of C1027 (antibody, V domains shown) VH: EVQLVESGGGLVQPGGSLRLSCAASGFIVTTNYMSWVRQAPGKGLEWVSLIYPGGSTFYADSVEGRFTISRDNSKNTLYLQVNSLRVEDTAVYYCARDTFGRGDDHWGQGTLVTVSS VL: DIQMTQSPSSLSASVGDRVTITCQASQDINIYLNWYQQRPGKAPKLLIYDASNLQTGVPSRFSGSGSGTDFTITISSLQPEDIATYYCQQYDNLPRSFGQGTKLEI is ___
0.0114
